Attribution: patent US11053204B2

Quick list: plant injury at 500 g/ha per entry.
# System: corn (Zea mays)
# ASSAY_INFO: Test A postemergence, visual injury rating
# Type: in vivo
# EXPERIMENTAL_CONDITIONS: Zea mays, post-emergence, 240 h, 500 g ai/ha, 0 is no effect, 100 is complete control, read-out: Corn plant response rating (0 to 100 scale)
# From the text: […]
Give just the numeric value; % need not be written.

smiles_structure=C=CCOC(=O)c1c(Br)cccc1Oc1ncc(Cl)cn1 endpoint_label="plant injury at 500 g/ha" observed_value=50
smiles_structure=O=C(OCC(F)(F)C(F)(F)F)c1c(Br)cccc1Oc1ncc(Cl)cn1 endpoint_label="plant injury at 500 g/ha" observed_value=20
smiles_structure=O=C(OCCC(F)(F)F)c1c(Cl)cccc1Oc1ncc(Cl)cn1 endpoint_label="plant injury at 500 g/ha" observed_value=90
smiles_structure=O=C(OCCC(F)(F)F)c1c(Br)cccc1Oc1ncc(Cl)cn1 endpoint_label="plant injury at 500 g/ha" observed_value=100

Now for another entry.
Return reported plant injury at 500 g/ha; argument: O=C(NCC(F)(F)F)c1ccccc1Oc1ncc(Cl)cn1
0
